Hey, just so you know, these numbers are from patent US20260167721A1.

biological target: T1, recombinant human CD3 epsilon/gamma heterodimer (human, UniProt P07766 23-126; P09693 23-116); assay: Octet BLI, mAb on FAB2G sensor, hCD3 E/G 200-50 nM; R^2 0.98
T1 construct: Recombinant protein in solution (200-50 nM) in the Octet assay; also called hCD3 E/G
T1 sequence (P07766 23-126, chain 1 of 2): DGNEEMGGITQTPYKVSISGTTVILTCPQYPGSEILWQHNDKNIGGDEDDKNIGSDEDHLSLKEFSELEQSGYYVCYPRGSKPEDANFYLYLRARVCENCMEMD
T1 sequence (P09693 23-116, chain 2 of 2): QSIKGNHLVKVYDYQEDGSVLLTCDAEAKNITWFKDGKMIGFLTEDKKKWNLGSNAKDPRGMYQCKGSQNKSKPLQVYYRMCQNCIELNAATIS
reported_endpoint: koff (s⁻¹)

binder	value_reported
ABL-CD3-49 (antibody, V domains shown, Chimeric hybridoma mAb: human V, CH1, upper hinge; mouse middle hinge, CH2, CH3) VH: EVQLVESGGGLVKPGGSLRLSCSASGFTFSTYTMNWVRQAPGKGLEWVSSISKSSSYIYYTDSVKGRFTISRDNAKNSLYLQMNSLRAEDTAVYYCARERRTLAFDIWGQGTMVTVSS VL: NFMLTQPHSVSESPGKTVTISCTRSSGSIASNYVQWYQQRPGSSPTTVIYEDNQRSSGVPDRFSGSIDSSSNSASLTISGLKTEDEADYYCQCYDRSNRVFGGGTKLTVL	0.00253
ABL-CD3-51 (antibody, V domains shown, Chimeric hybridoma mAb: human V, CH1, upper hinge; mouse middle hinge, CH2, CH3) VH: EVQLVESGGGLVKPGGSLRLSCAASGFTFSSYSMNWVRQAPGKGLEWVSSISRSSSYIYYADSVKGRFTISRDNAKNSLYLQMNSLRAEDTAVYYCARERWELLYFDYWGQGTLVTVSS VL: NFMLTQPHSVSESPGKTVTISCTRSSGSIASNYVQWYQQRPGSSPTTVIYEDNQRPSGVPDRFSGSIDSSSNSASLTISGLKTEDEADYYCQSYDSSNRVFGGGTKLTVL	0.163
